- System: arylsulfatase
- methodDescription: Substrate activity at Helix pomatia arylsulfatase assessed as enzyme-mediated compound hydrolysis by measuring Km by UPLC-MS/MS analysis
- Assay type: ADME
- conditionParameters: Helix pomatia arylsulfatase (isolated enzyme)
Counter-ions that a name gives are not always drawn.
recordedMetric: Km
Provide a numeric answer, followed by its unit.

Reference set (10 entries):
1. Cc1ccc(OS(=O)(=O)O)cc1; 1400 µM
2. CCc1ccc(OS(=O)(=O)O)cc1; 1020 µM
3. Cc1cc(=O)oc2cc(OS(=O)(=O)O)ccc12; 175 µM
4. C[C@]12CC[C@@H]3c4ccc(OS(=O)(=O)O)cc4CC[C@H]3[C@@H]1CCC2=O; 351 µM
5. COc1cc(/C=C/C(=O)O)ccc1OS(=O)(=O)O; 161 µM
6. O=C(O)/C=C/c1ccc(OS(=O)(=O)O)cc1; 262 µM
7. COc1ccc2c(c1)c(=O)oc1cc(OS(=O)(=O)O)ccc12; 112 µM
8. COc1cc(C(=O)O)ccc1OS(=O)(=O)O; 341 µM
9. CC(=O)NCCc1ccc(OS(=O)(=O)O)cc1; 1490 µM
10. O=S(=O)(O)Oc1cccc(O)c1; 131 µM

# returns recorded Km (system: arylsulfatase) for O=S(=O)(O)Oc1c[nH]c2ccccc12 [INDOXYL SULFATE]
216 µM

###

- methodDescription: Substrate activity at Helix pomatia arylsulfatase assessed as enzyme-mediated compound hydrolysis by measuring Vmax by UPLC-MS/MS analysis
- Assay type: ADME
Where a name gives a salt, the structure may show the parent alone.
A collection of molecules and their measured Vmax
Respond with the bare value in µM/s.

1. O=C(O)/C=C/c1ccc(OS(=O)(=O)O)cc1; 0.02

Look up Vmax for this molecule: Cc1ccc(OS(=O)(=O)O)cc1
0.08

Please report the recorded Vmax for CC(=O)NCCc1ccc(OS(=O)(=O)O)cc1 .
0.17

Dear colleague, I am looking for the recorded Vmax of the following molecule: O=S(=O)(O)Oc1c[nH]c2ccccc12 [INDOXYL SULFATE]
0.02

What value of Vmax has been reported for the following molecule? COc1cc(C(=O)O)ccc1OS(=O)(=O)O
0.01

Vmax for CCc1ccc(OS(=O)(=O)O)cc1 ?
0.66

What measured Vmax goes with O=S(=O)(O)Oc1cccc(O)c1 ?
0.01

###

- methodDescription: Stability of the compound in pH 7 ammonium acetate buffer by UPLC-MS/MS analysis
- Format: physicochemical
recordedMetric: Stability

1) CC(=O)NCCc1ccc(OS(=O)(=O)O)cc1; Stable
2) C=Cc1ccc(OS(=O)(=O)O)c(OC)c1; Stable
3) COc1ccc2c(c1)c(=O)oc1cc(OS(=O)(=O)O)ccc12; Stable
